Where do these numbers come from? They come from paper PMC3004914.

system tested: rNav1.2 sodium channels (HEK-293 cells) (Rattus norvegicus, UniProt P04775)
Sequence (P04775 whole entry): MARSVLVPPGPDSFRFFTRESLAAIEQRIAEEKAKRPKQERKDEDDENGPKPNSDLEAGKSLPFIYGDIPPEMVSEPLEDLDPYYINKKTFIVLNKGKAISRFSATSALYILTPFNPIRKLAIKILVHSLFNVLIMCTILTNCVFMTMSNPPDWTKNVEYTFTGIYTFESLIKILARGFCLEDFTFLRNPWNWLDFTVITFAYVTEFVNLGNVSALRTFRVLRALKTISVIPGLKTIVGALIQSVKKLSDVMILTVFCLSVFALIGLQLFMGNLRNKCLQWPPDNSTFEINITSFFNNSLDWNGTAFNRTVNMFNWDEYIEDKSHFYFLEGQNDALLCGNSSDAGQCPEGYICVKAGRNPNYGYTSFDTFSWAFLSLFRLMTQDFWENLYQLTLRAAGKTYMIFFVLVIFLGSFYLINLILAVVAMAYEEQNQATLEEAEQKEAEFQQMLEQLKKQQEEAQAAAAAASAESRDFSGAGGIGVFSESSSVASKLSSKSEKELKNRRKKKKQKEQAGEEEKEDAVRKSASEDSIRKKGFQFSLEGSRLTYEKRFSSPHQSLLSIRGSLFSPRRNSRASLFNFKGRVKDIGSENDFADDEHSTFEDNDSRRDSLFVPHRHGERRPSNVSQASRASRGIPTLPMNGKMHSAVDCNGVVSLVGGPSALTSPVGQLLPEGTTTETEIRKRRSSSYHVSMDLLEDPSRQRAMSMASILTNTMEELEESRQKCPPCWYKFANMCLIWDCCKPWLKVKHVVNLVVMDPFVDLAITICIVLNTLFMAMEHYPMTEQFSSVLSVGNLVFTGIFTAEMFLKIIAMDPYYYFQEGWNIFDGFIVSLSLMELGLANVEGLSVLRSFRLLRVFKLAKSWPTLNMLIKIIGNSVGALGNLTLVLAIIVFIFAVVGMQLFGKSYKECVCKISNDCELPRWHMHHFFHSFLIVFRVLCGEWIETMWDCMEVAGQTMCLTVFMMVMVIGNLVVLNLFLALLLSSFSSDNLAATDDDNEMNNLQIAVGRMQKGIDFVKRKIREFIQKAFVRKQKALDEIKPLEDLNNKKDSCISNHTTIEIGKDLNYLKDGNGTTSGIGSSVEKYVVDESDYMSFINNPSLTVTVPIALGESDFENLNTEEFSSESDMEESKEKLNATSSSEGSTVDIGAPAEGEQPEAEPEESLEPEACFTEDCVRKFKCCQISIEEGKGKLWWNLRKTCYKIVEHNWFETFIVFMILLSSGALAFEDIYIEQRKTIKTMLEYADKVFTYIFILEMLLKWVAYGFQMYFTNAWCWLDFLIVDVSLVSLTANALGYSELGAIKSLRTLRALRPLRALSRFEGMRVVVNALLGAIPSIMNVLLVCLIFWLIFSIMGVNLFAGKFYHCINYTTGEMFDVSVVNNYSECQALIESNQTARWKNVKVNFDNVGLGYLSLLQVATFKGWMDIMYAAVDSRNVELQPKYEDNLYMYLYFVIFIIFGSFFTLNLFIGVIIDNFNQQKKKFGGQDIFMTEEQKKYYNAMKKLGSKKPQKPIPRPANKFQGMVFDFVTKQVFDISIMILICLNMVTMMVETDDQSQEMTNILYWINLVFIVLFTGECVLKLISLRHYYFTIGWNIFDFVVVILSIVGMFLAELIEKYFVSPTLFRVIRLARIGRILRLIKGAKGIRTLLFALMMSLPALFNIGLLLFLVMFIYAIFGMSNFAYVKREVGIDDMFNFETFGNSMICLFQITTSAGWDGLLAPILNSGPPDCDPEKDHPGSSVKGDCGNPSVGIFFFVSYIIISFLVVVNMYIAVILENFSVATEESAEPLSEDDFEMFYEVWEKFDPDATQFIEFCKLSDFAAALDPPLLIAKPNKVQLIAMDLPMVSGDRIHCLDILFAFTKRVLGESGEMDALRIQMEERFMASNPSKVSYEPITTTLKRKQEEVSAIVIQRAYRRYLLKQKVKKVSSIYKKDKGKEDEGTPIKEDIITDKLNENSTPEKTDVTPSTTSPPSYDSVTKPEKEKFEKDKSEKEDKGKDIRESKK
experimental protocol: steady-state inactivation protocol (availability curves), QPatch automated patch-clamp
Assay type: cell-based
condition notes: 100 μM
# binarize ΔV1/2 (shift of availability curve): threshold -8 mV inclusive, high side Criterion met, low side Criterion not met

[
  {
    "molecule": "C[Si](C)(Cc1ccc(F)cc1)CN1CCCCC1",
    "assigned label": "Criterion met"
  },
  {
    "molecule": "Cc1ccc(C(=O)C(C)CN2CCCCC2)cc1 (stereo not shown)",
    "assigned label": "Criterion met"
  },
  {
    "molecule": "CC12CC3CC(C)(C1)CC(N)(C3)C2 [MEM, Memantine]",
    "assigned label": "Criterion met"
  },
  {
    "molecule": "CN(C)CCC=C1c2ccccc2CCc2ccccc21",
    "assigned label": "Criterion not met"
  },
  {
    "molecule": "CCCCN1CCCCC1C(=O)Nc1c(C)cccc1C (stereo not shown)",
    "assigned label": "Criterion not met"
  },
  {
    "molecule": "CNCCC(Oc1ccccc1OC)c1ccccc1 (stereo not shown)",
    "assigned label": "Criterion met"
  }
]

Please examine the following record next.
Given the entry COc1ccc(C(CN(C)C)C2(O)CCCCC2)cc1 (stereo not shown) , answer whether its ΔV1/2 (shift of availability curve) meets or surpasses -8 mV.
Criterion met
